test: self-splicing fitness, log relative to wild type (ln ratio); higher = more splicing; Tetrahymena group I intron in knt gene, E. coli kanamycin selection, DiMSum; sequences stand for … in CUCUCU…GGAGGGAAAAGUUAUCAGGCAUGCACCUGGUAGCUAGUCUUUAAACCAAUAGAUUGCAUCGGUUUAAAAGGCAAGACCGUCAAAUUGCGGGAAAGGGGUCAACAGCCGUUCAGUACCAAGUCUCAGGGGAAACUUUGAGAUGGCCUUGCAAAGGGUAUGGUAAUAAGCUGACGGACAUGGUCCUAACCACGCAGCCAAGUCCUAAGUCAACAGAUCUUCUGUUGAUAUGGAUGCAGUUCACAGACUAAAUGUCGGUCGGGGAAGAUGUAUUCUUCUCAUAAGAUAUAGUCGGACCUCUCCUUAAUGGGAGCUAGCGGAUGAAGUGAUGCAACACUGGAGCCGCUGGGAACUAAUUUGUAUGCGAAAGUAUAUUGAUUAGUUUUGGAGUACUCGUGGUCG; conditions: 37 °C;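 further: selection with 25 µg/mL kanamycin versus none on LB agar overnight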
outcome_measure: self-splicing fitness (ln)
// return just the number, without any unit appended

AGGGAGCAAUAUUACGCAUA: -2.63
AAUUAGCAAUAUUACGAGAU: -2.16
UAGCAGCAAUAUUACGACUA: 0.568
GGCAAGCAAUAUUACGAGCA: -0.381
GGCCAGCAAUAUUACGAGAU: -2.82

The reported value for UUUAAGCAAUAUUACGCCUC in terms of self-splicing fitness (ln) is -0.852

Sure, the documented self-splicing fitness (ln) for AUGCAGCAAUAUUACGGCCU is 0.0607

GET /value?item= GACCAGCAAUAUUACGGAAC &field=self-splicing fitness (ln) returns -0.504

Value of measured self-splicing fitness (ln) for the entry AGGAAGCAAUAUUACGUAGC : -1.62

self-splicing fitness (ln) in this record for CUCGAGCAAUAUUACGCGGU : -1.97

Record ACAUAGCAAUAUUACGUCCG . Reported self-splicing fitness (ln): -1.2

get_value(item= UUAAAGCAAUAUUACGUGGC , readout=self-splicing fitness (ln)) returns -2.98

Value of measured self-splicing fitness (ln) for the entry AGCAAGCAAUAUUACGAAUG : -1.71

// GUCUAGCAAUAUUACGUCAA : self-splicing fitness (ln) value = -0.997

For record UAUGAGCAAUAUUACGGUUC the listed self-splicing fitness (ln) is -3.82

The reported value for GACGAGCAAUAUUACGUGCG in terms of self-splicing fitness (ln) is -0.259

* * *

Recorded self-splicing fitness (ln) for the following sequences
experiment: self-splicing fitness, log relative to wild type (ln ratio); higher = more splicing; Tetrahymena group I intron in knt gene, E. coli kanamycin selection, DiMSum; sequences stand for … in CUCUCU…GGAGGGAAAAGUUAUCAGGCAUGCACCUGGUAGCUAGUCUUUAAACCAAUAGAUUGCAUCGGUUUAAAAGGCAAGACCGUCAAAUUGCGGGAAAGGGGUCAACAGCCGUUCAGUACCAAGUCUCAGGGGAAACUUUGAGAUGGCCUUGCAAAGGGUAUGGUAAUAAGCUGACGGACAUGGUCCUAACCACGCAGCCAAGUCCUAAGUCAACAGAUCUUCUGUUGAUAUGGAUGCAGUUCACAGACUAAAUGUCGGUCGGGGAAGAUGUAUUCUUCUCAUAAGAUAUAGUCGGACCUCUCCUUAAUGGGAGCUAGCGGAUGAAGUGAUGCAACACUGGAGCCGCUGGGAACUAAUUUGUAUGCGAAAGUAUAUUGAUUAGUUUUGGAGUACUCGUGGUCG; settings: 37 °C

UCCCAGCAAUAUUACGACUA: -1.15
GCCUAGCAAUAUUACGGAAG: -1.44
CUGCAGCAAUAUUACGACUC: -1.98
GACGAGCAAUAUUACGCUCC: -1.91
AGGCAGCAAUAUUACGAGUG: -1.96
GGGCAGCAAUAUUACGUAAG: 0.126
UCCCAGCAAUAUUACGAUUG: -3.17

Next sequence, self-splicing fitness (ln) to be filled in.
The sequence listed as GGCUAGCAAUAUUACGUGGG shows self-splicing fitness (ln) equal to -1.91
